TESTED_TARGET: Mouse soluble TWEAK (mouse) (UniProt O54907)
EXPERIMENT_SUMMARY: receptor interaction ELISA: antibody pre-incubated with mouse soluble TWEAK, binding to coated mouse Fn14:Fc
MEASUREMENT_TYPE: IC50 (ng/mL)
I only need the number, in ng/mL, no unit after it.

Value of IC50 reported for the binder Antibody 18 (antibody, V domains shown) VH: QVQLQESGPGLVKPSETLSLTCTVSGYSIRSGYWWSWIRQPPGKGLEWIGQIYNKGNTDNSPSLKSRVTISVDTSKNQFSLKLSSVTAADTAVYYCARVFWDDAYFDVWGQGTMVTVSS VL: EIVLTQSPATLSLSPGERATLSCKASQSVSIGPIHLMHWYQQKPGQAPRLLIYGASNPESGIPARFSGSGSGTDFTLTISSLEPEDFAVYYCQQGKESPRTFGQGTKLEIK is 6

Measured IC50 of Antibody 19 (antibody, V domains shown) VH: QVQLQESGPGLVKPSETLSLTCAVSGYSIRSGYWWSWIRQQPGKGLEWIGQIYNKGNTDNNPALKSQVTISVDTSKNQFSLKLSSVTAADTAVYYCARVFWDDAYFDVWGQGTMVTVSS VL: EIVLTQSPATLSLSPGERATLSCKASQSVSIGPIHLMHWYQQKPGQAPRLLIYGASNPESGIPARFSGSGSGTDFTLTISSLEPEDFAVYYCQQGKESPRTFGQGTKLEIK : 7

Recorded result, Antibody 26 (antibody, V domains shown) VH: QVQLQESGPGLVKPSETLSLTCAVSGYSIRSGYWWSWIRQQPGKGLEWIGQIYNKGNTDNSPSLKSQVTISVDTSKNQFSLKLSSVTAADTAVYYCARVFWDDAYFDVWGQGTMVTVSS VL: EIVLTQSPGTLSLSPGERATLSCKASQSVSIGPIHLMHWYQQKPGQAPRLLIYGASNPESGIPDRFSGSGSGTDFTLTISRLEPEDFAVYYCQQGKESPRTFGQGTKLEIK , IC50: 36
